From: the supplement of paper PMC4166925

System: SpTbr T-box DNA-binding domain (GST fusion);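 further: protein at 200 nM in PBS on universal double-stranded arrays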
Sequence: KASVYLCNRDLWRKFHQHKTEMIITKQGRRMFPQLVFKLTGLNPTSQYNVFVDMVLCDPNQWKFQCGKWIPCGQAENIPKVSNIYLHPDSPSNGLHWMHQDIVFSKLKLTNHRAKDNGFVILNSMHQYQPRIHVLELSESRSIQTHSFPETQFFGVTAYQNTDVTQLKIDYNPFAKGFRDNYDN
Assay: PBM E-score of 8-mer (E-score (dimensionless, -0.5 to 0.5)); Tbr is Tbrain of the sea star Patiria miniata (Pm) or the sea urchin Strongylocentrotus purpuratus (Sp); higher = stronger binding preference
Conditions: the construct has about 5 more residues each side
In all, about 33,000 sequences were measured (“E-score (dimensionless, -0.5 to 0.5)”: median about -0.046, highest 2% from about 0.36 on). The full list was thinned out, with the highest values kept by preference.
Would you mind labelling by PBM E-score of 8-mer? At or over 0.02 is Y, under is N.

>  <SEQ>
CTCTCCAC

>  <TEST SYSTEM>
SpTbr T-box DNA-binding domain (GST fusion);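 further: protein at 200 nM in PBS on universal double-stranded arrays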

>  <CLASS>
Y

$$$$
>  <SEQ>
CTTAACCC

>  <TEST SYSTEM>
SpTbr T-box DNA-binding domain (GST fusion);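 further: protein at 200 nM in PBS on universal double-stranded arrays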

>  <CLASS>
N

$$$$
>  <SEQ>
ATTTCACG

>  <TEST SYSTEM>
SpTbr T-box DNA-binding domain (GST fusion);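 further: protein at 200 nM in PBS on universal double-stranded arrays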

>  <CLASS>
Y

$$$$
>  <SEQ>
TAAGGTGA

>  <TEST SYSTEM>
SpTbr T-box DNA-binding domain (GST fusion);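 further: protein at 200 nM in PBS on universal double-stranded arrays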

>  <CLASS>
Y

$$$$
>  <SEQ>
AGTGTGTA

>  <TEST SYSTEM>
SpTbr T-box DNA-binding domain (GST fusion);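 further: protein at 200 nM in PBS on universal double-stranded arrays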

>  <CLASS>
Y

$$$$
>  <SEQ>
GACCTCTA

>  <TEST SYSTEM>
SpTbr T-box DNA-binding domain (GST fusion);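 further: protein at 200 nM in PBS on universal double-stranded arrays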

>  <CLASS>
N

$$$$
>  <SEQ>
ACGCTGAG

>  <TEST SYSTEM>
SpTbr T-box DNA-binding domain (GST fusion);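 further: protein at 200 nM in PBS on universal double-stranded arrays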

>  <CLASS>
N

$$$$
>  <SEQ>
CGTGTGAC

>  <TEST SYSTEM>
SpTbr T-box DNA-binding domain (GST fusion);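 further: protein at 200 nM in PBS on universal double-stranded arrays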

>  <CLASS>
Y

$$$$

Test whether the sequence CATCGCAG records PBM E-score of 8-mer of 0.02 or higher.
Y

Test whether the sequence AGTCCAGG records PBM E-score of 8-mer of 0.02 or higher.
N

Test whether the sequence CGTGACGC records PBM E-score of 8-mer of 0.02 or higher.
Y

Test whether the sequence AGTGACGA records PBM E-score of 8-mer of 0.02 or higher.
Y

Test whether the sequence CATGTGAG records PBM E-score of 8-mer of 0.02 or higher.
Y

Test whether the sequence AAAGATCT records PBM E-score of 8-mer of 0.02 or higher.
N

Test whether the sequence TATGATAA records PBM E-score of 8-mer of 0.02 or higher.
N
